# Test system: CCRF-CEM
# Assay method text: NCI tumour cell line growth inhibition, 48 h
Activity calls are given as the source filed them. Rule as the data show it: active = GI50 up to about 1.1 µM and inactive = higher.
Outcome codes: T for active, F for inactive

• O=C(NS(=O)(=O)OCC(Cl)(Cl)Cl)SCCC(F)(F)C(F)(F)C(F)(F)C(F)(F)C(F)(F)C(F)(F)F = F
• Cc1c(C(=O)/C=C/c2c(Cl)cccc2Cl)c(=O)n(-c2ccccc2)n1C = F
• CN(C)CCC1(C2=CCCC2)CC/C(=C\c2ccccc2)C1=O (centres undefined) = F
• COc1cc(NCc2ccc3oc(=O)c(-c4ccccc4)nc3c2)cc(OC)c1OC = F
• Nc1n[nH]c2c(C(=O)Nc3ccc(Cl)cc3)c(N)n(N)c(=O)c12 = F
• CC1=C(c2ccc(C)cc2)NC(=S)C(C)C(c2ccc(C)cc2)=N1 (centres undefined) = F
• CC1=NN(C(=O)CC(=O)Nc2cccc(C)c2)C(=O)C1/N=N/c1ccc(S(=O)(=O)CCOS(=O)(=O)O)cc1 (centres undefined) = T
• CC(C)C1=CC2=C(C(=O)C1=O)C13CCCC(C)(C)C1CC2OC3=O (centres undefined) = F
• CCc1c(-c2coc(CC/C(C)=C/c3ccccc3)n2)oc(OC)c(C)c1=O = F
